- studyTarget: T1, human TMEM106B (human, UniProt Q9NUM4 2-274)
- T1 construct: full-length, transiently expressed on HEK293 cells, or natively expressed on HeLa, U251 and A549 cells (the cell is named under assay); also the source of the Pepscan peptides; also called huTMEM106B; huTMEM
- assayDetails: FACS A549 1 ug/ml
assayReadout: MFI
Write your answer as a measured quantity: the number, then the unit.

binder	result
TM-10 (antibody, V domains shown) VH: QVQLQQSGAELVKPGASVKISCKGSGYAFSSYWMNWVKQRPGKGLEWIGQIYPGDGDTNYNGKFKGKATLTADKSSTTAYIHLSSLTSEDSAVYFCARWGHYDEAMDDWGQGTSVTVSS VL: DVVMTQTPLSLPVSLGDQASISCRSSQSLVHSNGKTYLHWYVQKPGQSPKLLIYKISNRFSGVPDRFSGSGSGTDFTLKISRVEAEDLGVYFCSQITHVPWTFGGGTKLESK	663 MFI
TM-21 (antibody, V domains shown) VH: EVQLVESGGGLVKPGGSLKLSCAASGFTFSNYAMSWVRETPEKRLEWVAFISDGGGYIYYADNVKDRFTISRDNAKNNLYLQMRHLKSEDTAMYYCARDGGTGFTYWGQGTLVTVSV VL: DIVMTQAAFSNPVTLGTSASISCRSSKSLLHSNGITYLFWYLQKPGQSPQLLIYQMSNLASGVPDRFSSSGSGTDFTLRISRVEAEDVGVYYCVQNLELPYTFGGGTKLEIK	2030 MFI

### Prompt Recall and state the measured MFI for TM-39 (antibody, V domains shown) VH: HVQRQQSGTELAKPGASVKLSCKTSGYTFTDYWMHWIKQRPGQGLEWIGFINPSSGYTKYNQNFKDKATLTADKSSSTAYMQLSSLTYEDSAVFYCAREAGSISDWYFDVWGTGTTVTVSS VL: DIVMTQAAPSIPVTPGESVSISCRSSKTLLNSNGNTYLYWFLQRPGQPPQLLIYRMSNLASGVPDRFSGSGSGTAFTLRISRVEAEDVGVYYCMQHLDYPYTFGGGTQLEIK .
### Response 3610 MFI
